# assayed-target: erythrocytes infected with P. falciparum field isolate 9215
# assay-remarks: flow cytometry, staining of IEs
quantity: % parasite recognition

# get_value(readout='% parasite recognition', item= MGC1 (antibody) VH: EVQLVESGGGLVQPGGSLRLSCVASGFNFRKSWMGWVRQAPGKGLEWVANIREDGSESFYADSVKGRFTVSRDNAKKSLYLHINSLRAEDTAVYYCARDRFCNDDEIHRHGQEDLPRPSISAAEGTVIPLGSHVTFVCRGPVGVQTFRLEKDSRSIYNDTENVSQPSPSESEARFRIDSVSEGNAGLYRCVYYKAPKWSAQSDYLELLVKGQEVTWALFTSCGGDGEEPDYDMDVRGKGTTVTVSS VL: DIVMTQSPDSLAVSLGERATINCKSSQSVLYRSKNKNYLAWFQQKPGQPPKVLIYSTSTRASGVPDRFTGSGSGTDFTLTISSLQAEDVAVYYCLQYYITPYTFGQGTKLEIK )
14.9%
